Values compiled from PubChem BioAssay AID1159580.

# measurement-description: chemical genetic growth profiling, strain panel (AID 1159580);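 also: tested at 20 µM; growth read once vehicle control cultures reached saturation at 30 °C; 1 = growth at the plate median or of vehicle wells; lower values mean less growth of the strain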
# condition-context: S. cerevisiae deletion strains, growth OD, locus YOR290C, strain snf2
Out of some 5,500 compounds screened, about 2,000 (36%) were called active. Inconclusive results (about 18%) are left out. Rule as the data show it: active = normalized growth mostly below about 0.91 (no sharp cut-off); inconclusive = no clear call, values can overlap the other calls; inactive = mostly above about 0.92. The list shows a part of the results.
Write down one outcome, taken from 1 (yes) = active, 0 (no) = inactive

compound	label-class
O=c1c(O)c(-c2ccc(O)c(O)c2)oc2cc(O)ccc12	0 (no)

Query block: Test call for this compound, please: C=C(C)[C@@H]1CC[C@]2(CO)CC[C@]3(C)[C@H](CCC4[C@@]5(C)CC[C@H](O)C(C)(C)C5CC[C@]43C)C12 (stereo not given in full)
Result block: 0 (no)

Query block: Test call for this compound, please: `Cc1cc(C(C)(C)C)cc(C)c1CC1=NCCN1`
Result block: 0 (no)

Query block: Test call for this compound, please: `Cc1ccc(N(CC2=NCCN2)c2cccc(O)c2)cc1`
Result block: 0 (no)

Query block: Test call for this compound, please: `CN[C@@H]1[C@@H](O[C@H]2O[C@H](CO)[C@@H](N)[C@H](O)[C@H]2O)O[C@H]2C[C@@H](N)[C@H](O[C@H]3[C@H](O)[C@@H](O)[C@H](N)C[C@@H]3N)O[C@@H]2[C@@H]1O`
Result block: 0 (no)

Query block: Test call for this compound, please: `CNCC[C@@H](Oc1ccccc1)c1ccccc1`
Result block: 0 (no)

Query block: Test call for this compound, please: `CCC1(CC)C(=O)C=CNC1=O`
Result block: 0 (no)

Query block: Test call for this compound, please: `COc1c2occc2c(OC)c2c(=O)cc(C)oc12`
Result block: 0 (no)

====

# measurement-description: chemical genetic growth profiling, strain panel (AID 1159580);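 also: tested at 20 µM; growth read once vehicle control cultures reached saturation at 30 °C; 1 = growth at the plate median or of vehicle wells; lower values mean less growth of the strain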
# condition-context: S. cerevisiae deletion strains, growth OD, locus YOR316C, strain cot1, active compounds read low
The whole screen tested about 5,500 compounds, of which about 2,000 (36%) were called active. Another 18% or so got no clear call; they are omitted. Some of the results follow.
reported-property: normalized growth
Form rule: numeric answer, no unit written next to it.

Use these answered entries as a reference point.
compound	reported-property	observed-result
COc1cccc(OC)c1C(=O)N[C@@H]1C(=O)N2[C@@H]1SC(C)(C)[C@@H]2C(=O)O	normalized growth	0.977
CC[C@H]1OC(=O)[C@H](C)[C@@H](O[C@H]2C[C@@](C)(OC)[C@@H](O)[C@H](C)O2)[C@H](C)[C@@H](O[C@@H]2O[C@H](C)C[C@H](N(C)C)[C@H]2O)[C@](C)(O)C[C@@H](C)[C@@H]2N[C@@H](COCCOC)O[C@H]([C@H]2C)[C@]1(C)O	normalized growth	1.01
NC(=O)NO	normalized growth	1.01
CC1(C)S[C@@H]2[C@H](NC(=O)Cc3ccccc3)C(=O)N2[C@H]1C(=O)O	normalized growth	1.02
Cc1onc(-c2ccccc2)c1C(=O)NC1C(=O)N2[C@@H]1SC(C)(C)[C@@H]2C(=O)O (stereo partly specified)	normalized growth	1.01

Here's the next entry for you.
Query block: Please look up its normalized growth: `CC(=O)NO`
Result block: 0.996

====

# measurement-description: chemical genetic growth profiling, strain panel (AID 1159580);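 also: tested at 20 µM; growth read once vehicle control cultures reached saturation at 30 °C; 1 = growth at the plate median or of vehicle wells; lower values mean less growth of the strain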
# condition-context: S. cerevisiae deletion strains, growth OD, locus YPL241C, strain CIN2, active compounds read low
The whole screen tested about 5,500 compounds, of which about 2,000 (36%) were called active. About 18% were inconclusive and are not listed. The list shows a part of the results.
reported-property: normalized growth
Form rule: numeric answer, no unit written next to it.

Query block: Please look up its normalized growth: CC(NCCC(c1ccccc1)c1ccccc1)c1ccccc1 (configuration not stated)
Result block: 0.985

Query block: Please look up its normalized growth: `COC(=O)[C@]1(C)CC[C@]2(C)CC[C@]3(C)C4=CC=C5C(=CC(=O)C(O)=C5C)[C@]4(C)CC[C@@]3(C)[C@@H]2C1`
Result block: 0.898

Query block: Please look up its normalized growth: `O=[N+]([O-])c1ccc(-c2nn[nH]n2)cc1`
Result block: 0.999
